System: human iPSC lines
TEST_SUMMARY: Cell painting assay (image-based cell phenotyping) on a panel of human iPSC lines from different donors
RECORDED_CONDITIONS: panel of human iPSC lines from different donors, 24 hrs, concentration of Table 2 (5 μM; fenbendazole 3.34 μM)
METRIC: Uniformity or variation of response between human iPSC lines in UMAP embedding

STRUCTURE_NOTATION: O=C(CCCCCCC(=O)Nc1ccccc1)NO
TEST_RESULT: splitting of clusters
--
STRUCTURE_NOTATION: COC(=O)Nc1nc2ccc(Sc3ccccc3)cc2[nH]1
TEST_RESULT: splitting of clusters
